# subject.of.test: Transient receptor potential cation channel subfamily V member 1 (Rattus norvegicus)
# Sequence (O35433 whole entry): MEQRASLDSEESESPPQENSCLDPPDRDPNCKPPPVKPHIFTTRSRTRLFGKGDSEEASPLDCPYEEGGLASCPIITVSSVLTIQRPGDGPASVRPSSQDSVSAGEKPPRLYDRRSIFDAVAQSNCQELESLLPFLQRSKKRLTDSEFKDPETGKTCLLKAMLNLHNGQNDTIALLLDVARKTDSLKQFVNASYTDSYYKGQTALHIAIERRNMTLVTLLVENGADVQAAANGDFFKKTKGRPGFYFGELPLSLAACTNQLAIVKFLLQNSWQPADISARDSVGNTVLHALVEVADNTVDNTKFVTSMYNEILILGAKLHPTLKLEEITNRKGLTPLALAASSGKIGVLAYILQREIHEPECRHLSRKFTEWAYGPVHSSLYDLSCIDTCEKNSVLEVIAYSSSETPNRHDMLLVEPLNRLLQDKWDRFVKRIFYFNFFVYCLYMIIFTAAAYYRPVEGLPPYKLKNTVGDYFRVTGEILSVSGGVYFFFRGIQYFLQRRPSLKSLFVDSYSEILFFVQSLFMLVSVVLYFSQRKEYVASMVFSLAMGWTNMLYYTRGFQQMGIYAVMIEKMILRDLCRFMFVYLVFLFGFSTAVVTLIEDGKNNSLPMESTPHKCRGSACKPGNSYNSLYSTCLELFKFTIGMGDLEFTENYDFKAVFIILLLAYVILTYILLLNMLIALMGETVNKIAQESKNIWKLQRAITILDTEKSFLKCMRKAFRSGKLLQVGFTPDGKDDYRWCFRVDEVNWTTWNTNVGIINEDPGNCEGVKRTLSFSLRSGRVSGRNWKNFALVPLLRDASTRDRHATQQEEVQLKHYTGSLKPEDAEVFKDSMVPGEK
# test.name: Antagonist activity at rat TRPV1 expressed in CHO cells assessed inhibition of acid induced calcium influx
# Assay type: functional, cell-based
Flag rule - IC50 less than 10 nM flags Met; the remaining entries get Not met.

[
  {
    "molecule": "CC(=O)Nc1nc2c(Oc3cc(-c4ccc(C(F)(F)F)cc4)nc(NC(C)c4ccccn4)n3)cccc2s1 (stereo not drawn)",
    "subject.of.test": "Transient receptor potential cation channel subfamily V member 1 (Rattus norvegicus)",
    "assigned.category": "Met"
  },
  {
    "molecule": "CC(=O)Nc1nc2c(Oc3cc(-c4ccc(C(F)(F)F)cc4)nc(N)n3)cccc2s1",
    "subject.of.test": "Transient receptor potential cation channel subfamily V member 1 (Rattus norvegicus)",
    "assigned.category": "Met"
  },
  {
    "molecule": "CC(=O)Nc1nc2c(Oc3cc(-c4ccc(C(F)(F)F)cc4)nc(NCC4CCCCN4CC(C)C)n3)cccc2s1 (stereo not drawn)",
    "subject.of.test": "Transient receptor potential cation channel subfamily V member 1 (Rattus norvegicus)",
    "assigned.category": "Not met"
  },
  {
    "molecule": "CC(=O)Nc1nc2c(Oc3cc(-c4ccc(C(F)(F)F)cc4)nc(NCC4CCN(CC(C)C)CC4)n3)cccc2s1",
    "subject.of.test": "Transient receptor potential cation channel subfamily V member 1 (Rattus norvegicus)",
    "assigned.category": "Not met"
  },
  {
    "molecule": "CC(=O)Nc1nc2c(Oc3cc(-c4ccc(C(F)(F)F)cc4)nc(N4CCC(O)CC4)n3)cccc2s1",
    "subject.of.test": "Transient receptor potential cation channel subfamily V member 1 (Rattus norvegicus)",
    "assigned.category": "Not met"
  },
  {
    "molecule": "CC(=O)Nc1nc2c(Oc3cc(-c4ccc(C(F)(F)F)cc4)nc(N4CCC(C(=O)O)CC4)n3)cccc2s1",
    "subject.of.test": "Transient receptor potential cation channel subfamily V member 1 (Rattus norvegicus)",
    "assigned.category": "Not met"
  },
  {
    "molecule": "CC(=O)Nc1nc2c(Oc3cc(-c4ccc(C(F)(F)F)cc4)nc(N4CCOCC4)n3)cccc2s1",
    "subject.of.test": "Transient receptor potential cation channel subfamily V member 1 (Rattus norvegicus)",
    "assigned.category": "Met"
  },
  {
    "molecule": "CC(=O)Nc1nc2c(Oc3cc(-c4ccc(C(F)(F)F)cc4)nc(N4CCCCC4)n3)cccc2s1",
    "subject.of.test": "Transient receptor potential cation channel subfamily V member 1 (Rattus norvegicus)",
    "assigned.category": "Met"
  }
]

---

Quick list: half-life per entry.
# test.name: Half life in Sprague-Dawley rat at 1 mg/kg, iv
# Format: ADME, organism-based
# Set-up: dose 1 mg/kg, route intravenous
# experimental.conditions: in vivo

[
  {
    "molecule": "CC(=O)Nc1nc2c(Oc3cc(-c4ccc(C(F)(F)F)cc4)nc(NCC4CCCCN4CC(C)C)n3)cccc2s1 (stereo not drawn)",
    "unit.abbreviation": "h",
    "half-life": 2.6
  },
  {
    "molecule": "CC(=O)Nc1nc2c(Oc3cc(-c4ccc(C(F)(F)F)cc4)nc(NC(C)c4ccccn4)n3)cccc2s1 (stereo not drawn)",
    "unit.abbreviation": "h",
    "half-life": 5.5
  },
  {
    "molecule": "CC(=O)Nc1nc2c(Oc3cc(-c4ccc(C(F)(F)F)cc4)nc(C4=CCN(CC(C)C)CC4)n3)cccc2s1",
    "unit.abbreviation": "h",
    "half-life": 2
  }
]

---

Quick list: Vd per entry.
# test.name: Volume of distribution at steady state in Sprague-Dawley rat at 1 mg/kg, iv
# Assay type: ADME, organism-based
# Design: dose 1 mg/kg, route intravenous
# experimental.conditions: in vivo, read-out: Vdss
measured.parameter: Vd (L/kg)

[
  {
    "molecule": "CC(=O)Nc1nc2c(Oc3cc(-c4ccc(C(F)(F)F)cc4)nc(NC(C)c4ccccn4)n3)cccc2s1 (stereo not drawn)",
    "assay.value": 6.44
  },
  {
    "molecule": "CC(=O)Nc1nc2c(Oc3cc(-c4ccc(C(F)(F)F)cc4)nc(C4=CCN(CC(C)C)CC4)n3)cccc2s1",
    "assay.value": 6.38
  },
  {
    "molecule": "CC(=O)Nc1nc2c(Oc3cc(-c4ccc(C(F)(F)F)cc4)nc(NCC4CCCCN4CC(C)C)n3)cccc2s1 (stereo not drawn)",
    "assay.value": 8.29
  }
]
